// data source = paper PMC3684613

Tested on: P. falciparum 3D7
Experiment: DAPI stain fluorescent high content imaging assay, P. falciparum 3D7 (confirmatory screen, Avery)
Settings: Plasmodium falciparum, 3D7, read-out: EC50_nM
ASSAY READOUT: EC50 (nM)

- CCCCc1c(C)nc2c(OC)cccc2c1O [MMV006820]: 4000
- Nc1ccc(-c2nc3cc(Cc4ccc5[nH]c(-c6ccc(N)cc6)nc5c4)ccc3[nH]2)cc1 [MMV665943]: 1420
- CCCCc1c(CCC)c(=N)c2ccccc2n1C [MMV007764]: 716
- O=C(CCl)NCCOc1ccc(Cl)cc1Cl [MMV665927]: 555
- O=C(Nc1ccc(N2CCCCC2)c(Cl)c1)c1ccc(Br)o1 [MMV019700]: 735
